Endpoint: pEC50. System: Sodium-dependent serotonin transporter (Homo sapiens). Items follow.
Sequence (P31645 whole entry): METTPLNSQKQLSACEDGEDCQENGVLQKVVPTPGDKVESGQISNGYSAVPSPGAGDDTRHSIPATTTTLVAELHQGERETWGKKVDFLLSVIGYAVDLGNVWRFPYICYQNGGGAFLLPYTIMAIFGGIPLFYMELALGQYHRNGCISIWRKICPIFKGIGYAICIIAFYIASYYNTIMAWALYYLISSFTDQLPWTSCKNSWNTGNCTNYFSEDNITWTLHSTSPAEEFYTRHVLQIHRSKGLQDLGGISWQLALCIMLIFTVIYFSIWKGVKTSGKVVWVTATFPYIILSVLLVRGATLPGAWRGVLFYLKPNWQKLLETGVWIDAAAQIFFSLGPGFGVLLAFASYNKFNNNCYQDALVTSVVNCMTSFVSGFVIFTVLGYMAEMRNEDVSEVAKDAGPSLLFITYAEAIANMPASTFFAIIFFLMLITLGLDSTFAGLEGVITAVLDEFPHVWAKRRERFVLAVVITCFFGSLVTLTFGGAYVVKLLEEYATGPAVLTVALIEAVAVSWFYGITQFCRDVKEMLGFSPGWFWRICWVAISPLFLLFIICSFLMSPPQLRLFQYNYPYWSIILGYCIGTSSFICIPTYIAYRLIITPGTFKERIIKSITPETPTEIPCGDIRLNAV
pEC50: −log10 of the molar value.

{"smiles string": "CCCN(C)CCC[C@]1(c2ccc(F)cc2)OCc2cc(C#N)ccc21", "pEC50": 4.69}
{"smiles string": "CCCN(C)CCC[C@@]1(c2ccc(F)cc2)OCc2cc(C#N)ccc21", "pEC50": 5.23}
{"smiles string": "CCCCCN(C)CCC[C@@]1(c2ccc(F)cc2)OCc2cc(C#N)ccc21", "pEC50": 5.80}
